- Tested on: SEM cells
- Test Method Notes: cell viability relative to DMSO control; higher = less cytotoxic
- Assay Context: RPMI 5 mM glucose + 10% dialyzed FBS; 48 h; 15.4 µM
# Lookup of reported cell viability keyed by entry

>  <Compound>
O=NN(CCCl)C(=O)NC1CCCCC1

>  <Tested Target>
SEM cells

>  <cell viability / %>
100

$$$$
>  <Compound>
CC(C)c1cnn2c(NCc3ccccc3)cc(N[C@@H](CO)[C@H](O)CO)nc12

>  <Tested Target>
SEM cells

>  <cell viability / %>
3.66

$$$$
>  <Compound>
O=C(NOCC(O)CO)c1cc(Br)c(F)c(F)c1Nc1ccc(I)cc1F (configuration not stated)

>  <Tested Target>
SEM cells

>  <cell viability / %>
37.1

$$$$
>  <Compound>
Cc1ccccc1N1C(=O)c2cc([S+](N)(=O)[O-])c(Cl)cc2NC1C (configuration not stated)

>  <Tested Target>
SEM cells

>  <cell viability / %>
108

$$$$
>  <Compound>
OC(=O)C1=CC=C(NC2=NC3=C(C\N=C(/C4=CC(=CC=C34)Cl)C5=C(F)C=CC=C5F)C=N2)C=C1

>  <Tested Target>
SEM cells

>  <cell viability / %>
28.4

$$$$
>  <Compound>
COc1ccc(Cc2ccc(NC(N)=O)cc2)cc1-c1cccc(Cl)c1

>  <Tested Target>
SEM cells

>  <cell viability / %>
108

$$$$
>  <Compound>
N=C(CCSCc1csc(N=C(N)N)n1)N[S+](N)(=O)[O-]

>  <Tested Target>
SEM cells

>  <cell viability / %>
92.6

$$$$
>  <Compound>
Cc1c(CN2CCN(C(=O)[C@H](C)O)CC2)sc2c(N3CCOCC3)nc(-c3cnc(N)nc3)nc12

>  <Tested Target>
SEM cells

>  <cell viability / %>
34.6

$$$$
>  <Compound>
CC(=O)Oc1ccccc1C(=O)O

>  <Tested Target>
SEM cells

>  <cell viability / %>
100

$$$$
>  <Compound>
NC(=O)c1cnc(N[C@@H]2CCCC[C@@H]2N)nc1Nc1cccc(-n2nccn2)c1

>  <Tested Target>
SEM cells

>  <cell viability / %>
58.3

$$$$
>  <Compound>
CN\1C(=O)/C(=C(\N=C1N2CCCC[S+]2([O-])=O)C(=O)NCC3=CC=C(F)C=C3)O

>  <Tested Target>
SEM cells

>  <cell viability / %>
111

$$$$
>  <Compound>
CC(=O)N(C)c1cccc(-c2ccnc3c(C(=O)c4cccs4)cnn23)c1

>  <Tested Target>
SEM cells

>  <cell viability / %>
112

$$$$
>  <Compound>
CCCCCCCCCCCCCCCCCCCCCCO

>  <Tested Target>
SEM cells

>  <cell viability / %>
116

$$$$
>  <Compound>
COc1ccc(-c2cc3nccn3c(Nc3ncccc3C(N)=O)n2)cc1OC

>  <Tested Target>
SEM cells

>  <cell viability / %>
49.1

$$$$
>  <Compound>
CN[S+](=O)([O-])Cc1ccc2[nH]cc(CCN(C)C)c2c1

>  <Tested Target>
SEM cells

>  <cell viability / %>
111

$$$$
>  <Compound>
CCc1cc(Nc2nccc(-c3c(-c4ccc(OC)c(C(=O)Nc5c(F)cccc5F)c4)nc4ccccn34)n2)c(OC)cc1N1CCC(N2CCN([S+](C)(=O)[O-])CC2)CC1

>  <Tested Target>
SEM cells

>  <cell viability / %>
65.9

$$$$
>  <Compound>
NCC1(CC(=O)O)CCCCC1

>  <Tested Target>
SEM cells

>  <cell viability / %>
136

$$$$
